Where do these numbers come from? They come from patent US20220049017A1.

target: T1, human PCSK9 variant a (human, UniProt Q8NBP7 31-692); test: ProteOn SPR, captured antibody, pH 5.8;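 further: antibodies captured on a GLC chip coated with anti-human Fc, rate constants from a 1:1 Langmuir fit of the sensorgrams, Kd derived from the fitted rates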
T1 construct: also called Human PCSK9 var A; hPCSK9a
Reported kon values for the following binders.
Your answer should be a plain number; it is taken to be in M⁻¹ s⁻¹.

Record excerpt, results attached:
CL-148219 (antibody, V domains shown, NLT motif in heavy chain framework 3 confirmed N-glycosylated by mass spectrometry, Human antibody, captured through anti-human Fc in the SPR assay) VH: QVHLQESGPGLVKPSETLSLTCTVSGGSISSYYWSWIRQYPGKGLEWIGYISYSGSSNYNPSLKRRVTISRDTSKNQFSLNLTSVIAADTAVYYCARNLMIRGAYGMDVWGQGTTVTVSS VL: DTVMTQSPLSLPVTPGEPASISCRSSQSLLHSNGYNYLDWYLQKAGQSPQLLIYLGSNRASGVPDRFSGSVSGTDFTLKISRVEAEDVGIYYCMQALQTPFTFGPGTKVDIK | 908000
CL-148219 QLT mutant (antibody, V domains shown) VH: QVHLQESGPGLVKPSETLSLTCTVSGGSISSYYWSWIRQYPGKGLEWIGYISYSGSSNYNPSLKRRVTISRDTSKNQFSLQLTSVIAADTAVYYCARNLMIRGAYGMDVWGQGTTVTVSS VL: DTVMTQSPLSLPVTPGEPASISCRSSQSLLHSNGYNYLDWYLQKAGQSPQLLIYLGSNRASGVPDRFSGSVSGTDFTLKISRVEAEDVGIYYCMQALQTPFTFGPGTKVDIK | 602000

Data request: What value of measured kon is listed for CL-274698 (antibody, V domains shown, Human antibody with a kappa light chain, derived from a PCSK9 knockout mouse) VH: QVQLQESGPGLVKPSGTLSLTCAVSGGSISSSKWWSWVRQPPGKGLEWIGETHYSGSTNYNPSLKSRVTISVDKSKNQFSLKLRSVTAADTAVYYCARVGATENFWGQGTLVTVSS VL: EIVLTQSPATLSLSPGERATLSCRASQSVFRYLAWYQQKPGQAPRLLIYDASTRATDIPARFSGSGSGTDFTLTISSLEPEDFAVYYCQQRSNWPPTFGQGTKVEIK ?
Data returned: 1.56e+06

Data request: What value of measured kon is listed for CL-148489 (antibody, V domains shown, Human antibody with a kappa light chain) VH: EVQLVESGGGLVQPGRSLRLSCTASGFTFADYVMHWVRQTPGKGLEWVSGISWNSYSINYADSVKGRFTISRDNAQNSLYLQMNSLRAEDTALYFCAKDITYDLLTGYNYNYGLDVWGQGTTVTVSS VL: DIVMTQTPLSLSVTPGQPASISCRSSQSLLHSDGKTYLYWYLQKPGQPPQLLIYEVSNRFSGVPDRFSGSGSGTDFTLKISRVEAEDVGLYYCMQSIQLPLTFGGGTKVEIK ?
Data returned: 1.25e+06
